# System: Saccharomyces cerevisiae
# method.notes: protein stability index of tFT-peptide fusion (C-terminal peptide) (PSI (0-1 scale)); higher = more stable (slower turnover)
# test.settings: genetic background: das1 deletion; temperature: 30 C
Give measured protein stability index for each item. Keep answers brief.
Lab note: record just the number, no unit beside it.

Query: Give the reported protein stability index for ASGVFSRLVLVS (system: Saccharomyces cerevisiae).
Response: 0.284

Query: Give the reported protein stability index for WVGVVLLSVVGG (system: Saccharomyces cerevisiae).
Response: 0.2

Query: Give the reported protein stability index for FLFFLFVVFVFV (system: Saccharomyces cerevisiae).
Response: 0.305

Query: Give the reported protein stability index for GESCGGSERRVG (system: Saccharomyces cerevisiae).
Response: 0.637

Query: Give the reported protein stability index for FLIFFVCLFRWK (system: Saccharomyces cerevisiae).
Response: 0.231

Query: Give the reported protein stability index for FSCRRISFFLLV (system: Saccharomyces cerevisiae).
Response: 0.536

Query: Give the reported protein stability index for ACCGVFFFFFWL (system: Saccharomyces cerevisiae).
Response: 0.366

Query: Give the reported protein stability index for RFCLLFVVAGGV (system: Saccharomyces cerevisiae).
Response: 0.343

Query: Give the reported protein stability index for GRCGGPRSLGVG (system: Saccharomyces cerevisiae).
Response: 0.52

Query: Give the reported protein stability index for GHYQGVCHRRIC (system: Saccharomyces cerevisiae).
Response: 0.64

Query: Give the reported protein stability index for FCCFFPFLWRVF (system: Saccharomyces cerevisiae).
Response: 0.541

Query: Give the reported protein stability index for AQLVYVITAVRT (system: Saccharomyces cerevisiae).
Response: 0.333

Query: Give the reported protein stability index for LFHPPSFSLRLF (system: Saccharomyces cerevisiae).
Response: 0.678

Query: Give the reported protein stability index for FSVRLCLFVWGC (system: Saccharomyces cerevisiae).
Response: 0.341

Query: Give the reported protein stability index for EVTRMLRVVREI (system: Saccharomyces cerevisiae).
Response: 0.631

Query: Give the reported protein stability index for LLLPSAPFLFLL (system: Saccharomyces cerevisiae).
Response: 0.307

Query: Give the reported protein stability index for RGWNGFWVVVVW (system: Saccharomyces cerevisiae).
Response: 0.239

Query: Give the reported protein stability index for RFFFFFPCLLAP (system: Saccharomyces cerevisiae).
Response: 0.417

Query: Give the reported protein stability index for FIVVSFCFFLFF (system: Saccharomyces cerevisiae).
Response: 0.301

Query: Give the reported protein stability index for WFSVIMLCYILP (system: Saccharomyces cerevisiae).
Response: 0.23

Query: Give the reported protein stability index for VFFCVLRVFFSA (system: Saccharomyces cerevisiae).
Response: 0.175

Query: Give the reported protein stability index for GSGCLFNRWRIL (system: Saccharomyces cerevisiae).
Response: 0.649

Query: Give the reported protein stability index for QLGGKVGNCHVV (system: Saccharomyces cerevisiae).
Response: 0.664

Query: Give the reported protein stability index for GGGVGVAVVLFW (system: Saccharomyces cerevisiae).
Response: 0.34

Query: Give the reported protein stability index for LYCGLIFFLRGV (system: Saccharomyces cerevisiae).
Response: 0.516

Query: Give the reported protein stability index for GGGGGGGGGGVG (system: Saccharomyces cerevisiae).
Response: 0.397

Query: Give the reported protein stability index for LCTCFLVLLLWC (system: Saccharomyces cerevisiae).
Response: 0.339

Query: Give the reported protein stability index for THRAVGIGLRCC (system: Saccharomyces cerevisiae).
Response: 0.496

Query: Give the reported protein stability index for WVFVETVFLVCG (system: Saccharomyces cerevisiae).
Response: 0.176

Query: Give the reported protein stability index for LLVVFSCFTFMF (system: Saccharomyces cerevisiae).
Response: 0.277

Query: Give the reported protein stability index for NAAVQSGGRVAG (system: Saccharomyces cerevisiae).
Response: 0.638

Query: Give the reported protein stability index for LLMLWWARVFSG (system: Saccharomyces cerevisiae).
Response: 0.298

Query: Give the reported protein stability index for LIFFFCSWVFRF (system: Saccharomyces cerevisiae).
Response: 0.402

Query: Give the reported protein stability index for FFLRFGLFLFTL (system: Saccharomyces cerevisiae).
Response: 0.429

Query: Give the reported protein stability index for GWVSCCVWSFLV (system: Saccharomyces cerevisiae).
Response: 0.531

Query: Give the reported protein stability index for EWVGIFRGVSVF (system: Saccharomyces cerevisiae).
Response: 0.256

Query: Give the reported protein stability index for SLEACYCFVVLV (system: Saccharomyces cerevisiae).
Response: 0.214

Query: Give the reported protein stability index for RSKKIFLTKKYS (system: Saccharomyces cerevisiae).
Response: 0.64

Query: Give the reported protein stability index for RLLCLARMRGLH (system: Saccharomyces cerevisiae).
Response: 0.631

Query: Give the reported protein stability index for FLSPPPFLALLP (system: Saccharomyces cerevisiae).
Response: 0.675

Query: Give the reported protein stability index for SRGKMTIVSNQI (system: Saccharomyces cerevisiae).
Response: 0.652

Query: Give the reported protein stability index for SRGLVPMANRYC (system: Saccharomyces cerevisiae).
Response: 0.656

Query: Give the reported protein stability index for GLLFWSGVVSWV (system: Saccharomyces cerevisiae).
Response: 0.243

Query: Give the reported protein stability index for WNSQGVFILAKC (system: Saccharomyces cerevisiae).
Response: 0.375

Query: Give the reported protein stability index for IYFFFFALHFPN (system: Saccharomyces cerevisiae).
Response: 0.366

Query: Give the reported protein stability index for LIRVLRVLRHSS (system: Saccharomyces cerevisiae).
Response: 0.638

Query: Give the reported protein stability index for ENKGGNQKRRKK (system: Saccharomyces cerevisiae).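 Further: PSI is a weighted mean of sequencing reads over stability bins, variants kept only with over 10 reads, mCherry proximal and sfGFP distal, peptide attached via GGGS linker.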
Response: 0.628
